Test system: ATP;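 also: ATP exposure 15 min at 22 °C before imaging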
assay: switch fluorescence ratio, 500 uM ATP over buffer (Cy3 cluster intensity, sum of 5 cycles each) (fold (ratio)); higher = stronger signal-on switching upon ATP binding; sequences stand for … in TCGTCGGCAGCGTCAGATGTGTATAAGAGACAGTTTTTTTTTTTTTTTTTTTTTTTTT…TC
settings: aptamer strand: ATP DNA aptamer (quencher-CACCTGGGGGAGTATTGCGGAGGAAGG + anchor), 100 nM annealed; ATP concentration: 500 uM
Record form. Attribute: switch fluorescence ratio. Fill in for each entry.
Give bare numbers.

For orientation, consider the following solved cases.
{"columns": ["sequenceData", "switch fluorescence ratio"],
 "data": [
  ["ATGTGGGCGG", 0.991],
  ["GATTGACAAT", 1.03]
]}

I need switch fluorescence ratio for every entry listed below, if you could help.
1. TCGGGGTGCA
2. TGGGTGGTGG
3. GTTGCTTTTT
4. GGGGGTTCCG
5. CGACGCTTGT

Solution:
[0.973, 0.983, 0.998, 0.98, 3.15]

----------
System: ATP;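 also: ATP exposure 15 min at 22 °C before imaging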
assay: switch fluorescence ratio, 500 uM ATP over buffer (Cy3 cluster intensity, sum of 5 cycles each) (fold (ratio)); higher = stronger signal-on switching upon ATP binding; sequences stand for … in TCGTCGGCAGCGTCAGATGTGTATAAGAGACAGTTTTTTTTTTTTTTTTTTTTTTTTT…TC
settings: aptamer strand: ATP DNA aptamer (quencher-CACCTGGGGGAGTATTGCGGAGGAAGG + anchor), 100 nM annealed; ATP concentration: 500 uM
Could you label it Satisfied if measured switch fluorescence ratio is 1 or higher, and Not satisfied otherwise?

{"columns": ["sequenceData", "className"],
 "data": [
  ["TAGTTGTAAA", "Satisfied"],
  ["ACCTAGCGAT", "Satisfied"],
  ["CTTTTGTCAC", "Satisfied"],
  ["CAGTCTGGGG", "Not satisfied"],
  ["CTGTCAGACT", "Satisfied"]
]}

Problem: Please tell me: is the sequence TAAGTTGGCT at or over 1 in terms of switch fluorescence ratio?
Solution: Not satisfied

Problem: Record: TATTTGCACG
Solution: Satisfied

Problem: Record: CGAAGAAAGG
Solution: Satisfied

Problem: Record: TAACAGGGGT
Solution: Satisfied

Problem: Record: AAGAGGTCTC
Solution: Not satisfied

Problem: Record: TTTTATATGC
Solution: Satisfied

Problem: Record: TTATCATCCG
Solution: Satisfied

Problem: Record: GACAATGTAC
Solution: Satisfied

Problem: Record: CAAATACGGT
Solution: Satisfied

----------
System: ATP;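 also: ATP exposure 15 min at 22 °C before imaging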
assay: switch fluorescence ratio, 500 uM ATP over buffer (Cy3 cluster intensity, sum of 5 cycles each) (fold (ratio)); higher = stronger signal-on switching upon ATP binding; sequences stand for … in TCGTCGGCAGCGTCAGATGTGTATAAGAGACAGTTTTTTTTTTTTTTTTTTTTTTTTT…TC
settings: aptamer strand: ATP DNA aptamer (quencher-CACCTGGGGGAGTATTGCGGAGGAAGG + anchor), 100 nM annealed; ATP concentration: 500 uM
Record form. Attribute: switch fluorescence ratio. Fill in for each entry.

For orientation, consider the following solved cases.
{"columns": ["sequenceData", "switch fluorescence ratio"],
 "data": [
  ["GTGTTTTAAA", 1],
  ["TTGAAGGCAA", 1.59],
  ["GCTAGAGGGG", 1.02],
  ["CAGGGTTAGG", 1.01],
  ["GAAAAGCCCC", 1.09]
]}

I need switch fluorescence ratio for every entry listed below, if you could help.
1. TTGTGGCAAG
2. CGATATATGA
3. TAGAGGCGAA
4. TGAATAAATT

Solution:
1: 1; 2: 1.02; 3: 1; 4: 1.02

I need switch fluorescence ratio for every entry listed below, if you could help.
1. TTTGGGGGCT
2. GTTTTAGGCG
3. TTGGTCGGTC
4. CGGGTATTTT

Solution:
[1.01, 0.986, 0.985, 0.988]

I need switch fluorescence ratio for every entry listed below, if you could help.
1. GGGACAGTGG
2. GGAGTTTTTT
3. TTGGGCCCTG
4. TAGTATGGGA
5. CTGTTTTGGG
6. GAGTGGGGA
7. GATATTTTTG
8. ACGGTGCATG

Solution:
1
0.968
1.06
0.968
1.03
1.03
1
1.02

I need switch fluorescence ratio for every entry listed below, if you could help.
1. TTATATGGGT
2. GTATGCGCAA
3. GCACATGAAC

Solution:
1: 0.999; 2: 2.74; 3: 1.1

----------
System: ATP;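 also: ATP exposure 15 min at 22 °C before imaging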
assay: switch fluorescence ratio, 500 uM ATP over buffer (Cy3 cluster intensity, sum of 5 cycles each) (fold (ratio)); higher = stronger signal-on switching upon ATP binding; sequences stand for … in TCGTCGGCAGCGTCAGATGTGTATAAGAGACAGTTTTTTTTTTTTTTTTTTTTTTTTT…TC
settings: aptamer strand: ATP DNA aptamer (quencher-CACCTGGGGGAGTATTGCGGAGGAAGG + anchor), 100 nM annealed; ATP concentration: 500 uM
measuredEndpoint: switch fluorescence ratio
Answers are plain numbers.

For orientation, consider the following solved cases.
{"columns": ["sequenceData", "measured"],
 "data": [
  ["TTTGTTGATT", 0.973],
  ["TTAAAAGGGA", 1.02],
  ["ATCGGAGGGG", 0.957],
  ["ACATAGTTTG", 0.989],
  ["ACTTACAGGG", 1.17]
]}

I need switch fluorescence ratio for every entry listed below, if you could help.
1. ACCTTCTTTT
2. CCTCTTTTTT
3. ATGTTGCCGT
4. TAATCGGTG
5. CGAAGAGGCG

Solution:
1. 1.11
2. 1.1
3. 1.01
4. 0.98
5. 0.997

I need switch fluorescence ratio for every entry listed below, if you could help.
1. GTGGGGTGAA
2. AGACTGGAGC

Solution:
1. 1.03
2. 1.06

I need switch fluorescence ratio for every entry listed below, if you could help.
1. TCGAGAGGTG
2. TAGGGATTTG
3. ATAAGATTAC
4. CATTTGGATT
5. GGTTCAGGGG
6. GGGGGCAGAA
7. CCGTGGGGGT

Solution:
1.1
1.01
1.01
1.04
2.26
0.983
1.05

I need switch fluorescence ratio for every entry listed below, if you could help.
1. TAAAAACCAT
2. CGGTAATGGG

Solution:
[1.01, 0.943]

----------
Tested on: ATP;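 also: ATP exposure 15 min at 22 °C before imaging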
assay: switch fluorescence ratio, 500 uM ATP over buffer (Cy3 cluster intensity, sum of 5 cycles each) (fold (ratio)); higher = stronger signal-on switching upon ATP binding; sequences stand for … in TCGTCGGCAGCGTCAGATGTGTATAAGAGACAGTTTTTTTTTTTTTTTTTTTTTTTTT…TC
settings: aptamer strand: ATP DNA aptamer (quencher-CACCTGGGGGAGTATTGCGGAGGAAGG + anchor), 100 nM annealed; ATP concentration: 500 uM
measuredEndpoint: switch fluorescence ratio

For orientation, consider the following solved cases.
{"columns": ["sequenceData", "measuredEndpoint", "measured"],
 "data": [
  ["TTTTTTGGAA", "switch fluorescence ratio", 1.1],
  ["GTGGAAAAGG", "switch fluorescence ratio", 0.966],
  ["CCGGACGTTC", "switch fluorescence ratio", 1.53],
  ["TTCCATATGT", "switch fluorescence ratio", 0.975],
  ["GCAATAATTA", "switch fluorescence ratio", 1.1]
]}

I need switch fluorescence ratio for every entry listed below, if you could help.
1. GGGGGCTATA
2. CATTGTCTTC
3. CAGGGCCATG
4. GCTTGCATGC
5. CTTTATGCGA
6. TATTCTAGTA

Solution:
1: 1; 2: 1.05; 3: 1.01; 4: 1.04; 5: 1.03; 6: 1.01

I need switch fluorescence ratio for every entry listed below, if you could help.
1. CTGACATGAT
2. TAGACGGGCT
3. GTTTATAGAG

Solution:
1. 1.07
2. 0.98
3. 1.01

----------
Record form. Attribute: switch fluorescence ratio. Fill in for each entry.
Test system: ATP;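 also: ATP exposure 15 min at 22 °C before imaging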
assay: switch fluorescence ratio, 500 uM ATP over buffer (Cy3 cluster intensity, sum of 5 cycles each) (fold (ratio)); higher = stronger signal-on switching upon ATP binding; sequences stand for … in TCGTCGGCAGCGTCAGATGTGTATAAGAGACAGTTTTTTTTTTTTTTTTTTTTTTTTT…TC
settings: aptamer strand: ATP DNA aptamer (quencher-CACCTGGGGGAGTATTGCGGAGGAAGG + anchor), 100 nM annealed; ATP concentration: 500 uM
Numbers only.

{"columns": ["sequenceData", "measuredEndpoint", "measured"],
 "data": [
  ["TTCAGGTTTC", "switch fluorescence ratio", 1]
]}

I need switch fluorescence ratio for every entry listed below, if you could help.
1. CTGGCCAAGT
2. ACGCGGCGGG
3. ATGATATTTT

Solution:
1: 0.999; 2: 0.977; 3: 0.986
